Numbered stars: 1 amine (or outer) side, 2 acyl side, 3 side chain; on linkers, the order of the positions; unused ones are H or OH. Bridge positions count the residues as written; N and C are the ends. Square brackets hold non-standard residues; d marks the D form. Peptide text beside a SMILES is read from it. * marks the point of attachment. Piperazine(2S-CO,4-Me) = CN1CCN[C@H](C(=O)O)C1; Phe(3,5-Me2) = Cc1cc(C)cc(C[C@H](N)C(=O)O)c1; Phe(3-OMe) = COc1cccc(C[C@H](N)C(=O)O)c1; Morpholine(3S-CO) = O=C(O)[C@@H]1COCCN1; Phe(3-Me) = Cc1cccc(C[C@H](N)C(=O)O)c1; NH(4-Cl-2-F-phenyl) = Fc1cc(Cl)ccc1N*; Pro(4R-Me) = C[C@H]1CN[C@H](C(=O)O)C1; Hyp = O=C(O)[C@@H]1C[C@@H](O)CN1; NH(4-Et-phenyl) = CCc1ccc(N*)cc1; NH(4-Me-phenyl) = Cc1ccc(N*)cc1; aThr = C[C@H](O)[C@H](N)C(=O)O; Pip = O=C(O)[C@@H]1CCCCN1; CO = O=C([*:1])[*:2]
List of IC50 tested on Sa-ClpP (Staphylococcus aureus).
Sequence (Q2G036 whole entry): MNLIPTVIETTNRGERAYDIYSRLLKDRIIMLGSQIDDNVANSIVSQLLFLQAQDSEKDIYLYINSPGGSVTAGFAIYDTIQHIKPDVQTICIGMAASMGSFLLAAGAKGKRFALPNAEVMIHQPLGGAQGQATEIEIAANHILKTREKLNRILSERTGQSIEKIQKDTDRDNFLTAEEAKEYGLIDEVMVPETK
API: value field is a number in µM; no unit string.

Recorded IC50, per entry:
compound	unit_tag	IC50
CCc1ccc(NC(=O)N[C@@H](Cc2cccc(C)c2)C(=O)N[C@@H]2C(=O)N3C[C@H](O)C[C@H]3C(=O)N3CCOC[C@H]3C(=O)N[C@@H](C)C(=O)N3C[C@H](C)C[C@H]3C(=O)O[C@H]2C)cc1 [Compound 24] ({NH(4-Et-phenyl)-CO}-[Phe(3-Me)][aThr][Hyp][Morpholine(3S-CO)]A[Pro(4R-Me)]; ester 2-C)	µM	2.31
Cc1ccc(NC(=O)N[C@@H](Cc2cccc(C)c2)C(=O)N[C@@H]2C(=O)N3C[C@H](O)C[C@H]3C(=O)N3CCN(C)C[C@H]3C(=O)N[C@@H](C)C(=O)N3C[C@H](C)C[C@H]3C(=O)O[C@H]2C)cc1 [Compound 30] ({NH(4-Me-phenyl)-CO}-[Phe(3-Me)][aThr][Hyp][Piperazine(2S-CO,4-Me)]A[Pro(4R-Me)]; ester 2-C)	µM	3.41
Cc1ccc(NC(=O)N[C@@H](Cc2cc(C)cc(C)c2)C(=O)N[C@@H]2C(=O)N3CCC[C@H]3C(=O)N3CCCC[C@H]3C(=O)N[C@@H](C)C(=O)N3C[C@H](C)C[C@H]3C(=O)O[C@H]2C)cc1 [Compound 2] ({NH(4-Me-phenyl)-CO}-[Phe(3,5-Me2)][aThr]P[Pip]A[Pro(4R-Me)]; ester 2-C)	µM	8.82
Cc1ccc(NC(=O)N[C@@H](Cc2cccc(C)c2)C(=O)N[C@@H]2C(=O)N3CCC[C@H]3C(=O)N3CCCC[C@H]3C(=O)N[C@@H](C)C(=O)N3C[C@H](C)C[C@H]3C(=O)O[C@H]2C)cc1 [Compound 1] ({NH(4-Me-phenyl)-CO}-[Phe(3-Me)][aThr]P[Pip]A[Pro(4R-Me)]; ester 2-C)	µM	7.48
CCc1ccc(NC(=O)N[C@@H](Cc2cccc(C)c2)C(=O)N[C@H]2COC(=O)[C@@H]3C[C@@H](C)CN3C(=O)[C@H](C)NC(=O)[C@@H]3CN(C)CCN3C(=O)[C@@H]3CCCN3C2=O)cc1 [Compound 16] ({NH(4-Et-phenyl)-CO}-[Phe(3-Me)]SP[Piperazine(2S-CO,4-Me)]A[Pro(4R-Me)]; ester 2-C)	µM	5.46
Cc1cccc(C[C@H](NC(=O)Nc2ccc(Cl)cc2F)C(=O)N[C@H]2COC(=O)[C@@H]3C[C@@H](C)CN3C(=O)[C@H](C)NC(=O)[C@@H]3CCCCN3C(=O)[C@@H]3C[C@@H](O)CN3C2=O)c1	µM	4.65

API: the following record is the query input.
Consider the compound shown here: COc1cccc(C[C@H](NC(=O)Nc2ccc(Cl)cc2F)C(=O)N[C@H]2COC(=O)[C@@H]3C[C@@H](C)CN3C(=O)[C@H](C)NC(=O)[C@@H]3CN(C)CCN3C(=O)[C@@H]3CCCN3C2=O)c1 [Compound 19] ({NH(4-Cl-2-F-phenyl)-CO}-[Phe(3-OMe)]SP[Piperazine(2S-CO,4-Me)]A[Pro(4R-Me)]; ester 2-C) What is its recorded IC50? 6.05
